Biological target: DNA topoisomerase 1 (Homo sapiens) (UniProt P11387)
Sequence (whole entry): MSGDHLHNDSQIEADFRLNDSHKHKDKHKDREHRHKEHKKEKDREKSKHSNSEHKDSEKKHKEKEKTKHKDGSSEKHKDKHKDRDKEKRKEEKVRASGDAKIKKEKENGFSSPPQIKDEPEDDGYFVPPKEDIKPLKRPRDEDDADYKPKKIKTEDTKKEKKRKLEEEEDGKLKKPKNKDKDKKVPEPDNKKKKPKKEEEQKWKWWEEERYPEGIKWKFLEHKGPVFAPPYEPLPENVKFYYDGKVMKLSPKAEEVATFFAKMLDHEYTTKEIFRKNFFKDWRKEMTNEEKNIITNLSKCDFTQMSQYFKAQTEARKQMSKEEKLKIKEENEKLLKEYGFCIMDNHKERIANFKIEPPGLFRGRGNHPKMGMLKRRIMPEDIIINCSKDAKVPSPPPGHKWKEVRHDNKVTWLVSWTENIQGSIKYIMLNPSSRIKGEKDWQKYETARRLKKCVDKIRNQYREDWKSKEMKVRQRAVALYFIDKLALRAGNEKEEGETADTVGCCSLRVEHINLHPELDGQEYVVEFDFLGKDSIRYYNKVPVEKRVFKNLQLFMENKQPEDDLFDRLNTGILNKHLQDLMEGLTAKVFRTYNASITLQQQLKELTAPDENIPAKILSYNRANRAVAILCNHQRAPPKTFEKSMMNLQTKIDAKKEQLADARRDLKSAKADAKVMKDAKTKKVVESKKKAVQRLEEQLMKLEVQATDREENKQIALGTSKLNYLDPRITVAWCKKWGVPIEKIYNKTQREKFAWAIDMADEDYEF
Assay: Inhibition of recombinant human topoisomerase 1-mediated DNA relaxation expressed in Saccharomyces cerevisiae TopI null strain RS190 at 80 uM using negatively supercoiled pUC18 as substrate pretreated with enzyme for 15 mins followed by substrate addition measured after 3 mins by agarose gel electrophoresis

[
  {
    "MOL": "FC(F)(F)c1ccc([C@@H]2C[C@H](c3ccccc3)c3cccc(P(=S)(c4ccccc4)c4ccccc4)c3N2)cc1",
    "inhibition": "17%"
  },
  {
    "MOL": "S=P(c1ccccc1)(c1ccccc1)c1cccc2c1N[C@H](c1ccccc1)C[C@@H]2c1ccccc1",
    "inhibition": "76%"
  },
  {
    "MOL": "FC(F)(F)c1ccc([C@@H]2C[C@H](c3ccccc3)c3cccc(P(c4ccccc4)c4ccccc4)c3N2)cc1",
    "inhibition": "59%"
  },
  {
    "MOL": "Cc1ccc([C@H]2C[C@@H](c3ccccc3)Nc3c2cccc3P(c2ccccc2)c2ccccc2)cc1",
    "inhibition": "76%"
  },
  {
    "MOL": "FC(F)(F)c1ccc(-c2cc(-c3ccccc3)c3cccc(P(=S)(c4ccccc4)c4ccccc4)c3n2)cc1",
    "inhibition": "81%"
  },
  {
    "MOL": "Fc1ccc([C@H]2C[C@@H](c3ccc(F)cc3)Nc3c2cccc3P(c2ccccc2)c2ccccc2)cc1",
    "inhibition": "75%"
  }
]

---

molecular target: DNA topoisomerase 1 (Homo sapiens) (UniProt P11387); assay: Inhibition of recombinant human topoisomerase 1-mediated DNA relaxation expressed in Saccharomyces cerevisiae TopI null strain RS190 at 80 uM using negatively supercoiled pUC18 as substrate pretreated with enzyme for 15 mins followed by substrate addition measured after 1 min by agarose gel electrophoresis
Parameter inhibition: see the listing below.
MEASURED_PARAMETER: inhibition (%)

[
  {
    "MOL": "FC(F)(F)c1ccc(-c2cc(-c3ccccc3)c3cccc(P(=S)(c4ccccc4)c4ccccc4)c3n2)cc1",
    "STUDY_SYSTEM": "DNA topoisomerase 1 (Homo sapiens) (UniProt P11387)",
    "READOUT_UNITS": "%",
    "OBSERVED_MEASUREMENT": 81
  },
  {
    "MOL": "O=P(c1ccccc1)(c1ccccc1)c1cccc2c1N[C@H](c1ccc(C(F)(F)F)cc1)C[C@@H]2c1ccccc1",
    "STUDY_SYSTEM": "DNA topoisomerase 1 (Homo sapiens) (UniProt P11387)",
    "READOUT_UNITS": "%",
    "OBSERVED_MEASUREMENT": 56
  },
  {
    "MOL": "Cc1ccc([C@H]2C[C@@H](c3ccccc3)Nc3c2cccc3P(=O)(c2ccccc2)c2ccccc2)cc1",
    "STUDY_SYSTEM": "DNA topoisomerase 1 (Homo sapiens) (UniProt P11387)",
    "READOUT_UNITS": "%",
    "OBSERVED_MEASUREMENT": 25
  },
  {
    "MOL": "Fc1ccc([C@@H]2C[C@H](c3ccccc3)c3cccc(P(=S)(c4ccccc4)c4ccccc4)c3N2)cc1F",
    "STUDY_SYSTEM": "DNA topoisomerase 1 (Homo sapiens) (UniProt P11387)",
    "READOUT_UNITS": "%",
    "OBSERVED_MEASUREMENT": 50
  },
  {
    "MOL": "Fc1ccc([C@H]2C[C@@H](c3ccc(F)cc3)Nc3c2cccc3P(c2ccccc2)c2ccccc2)cc1",
    "STUDY_SYSTEM": "DNA topoisomerase 1 (Homo sapiens) (UniProt P11387)",
    "READOUT_UNITS": "%",
    "OBSERVED_MEASUREMENT": 75
  },
  {
    "MOL": "O=P(c1ccccc1)(c1ccccc1)c1cccc2c1N[C@H](c1ccc(F)cc1)C[C@@H]2c1ccc(F)cc1",
    "STUDY_SYSTEM": "DNA topoisomerase 1 (Homo sapiens) (UniProt P11387)",
    "READOUT_UNITS": "%",
    "OBSERVED_MEASUREMENT": 50
  },
  {
    "MOL": "O=P(c1ccccc1)(c1ccccc1)c1cccc2c(-c3ccccc3)cc(-c3ccccn3)nc12",
    "STUDY_SYSTEM": "DNA topoisomerase 1 (Homo sapiens) (UniProt P11387)",
    "READOUT_UNITS": "%",
    "OBSERVED_MEASUREMENT": 52
  },
  {
    "MOL": "O=P(c1ccccc1)(c1ccccc1)c1cccc2c(-c3ccccc3)cc(-c3cccc4ccccc34)nc12",
    "STUDY_SYSTEM": "DNA topoisomerase 1 (Homo sapiens) (UniProt P11387)",
    "READOUT_UNITS": "%",
    "OBSERVED_MEASUREMENT": 87
  },
  {
    "MOL": "Cc1ccc([C@H]2C[C@@H](c3ccc(F)cc3)Nc3c2cccc3P(c2ccccc2)c2ccccc2)cc1",
    "STUDY_SYSTEM": "DNA topoisomerase 1 (Homo sapiens) (UniProt P11387)",
    "READOUT_UNITS": "%",
    "OBSERVED_MEASUREMENT": 92
  },
  {
    "MOL": "S=P(c1ccccc1)(c1ccccc1)c1cccc2c1N[C@H](c1ccccc1)C[C@@H]2c1ccccc1",
    "STUDY_SYSTEM": "DNA topoisomerase 1 (Homo sapiens) (UniProt P11387)",
    "READOUT_UNITS": "%",
    "OBSERVED_MEASUREMENT": 81
  }
]
